molecular target: recombinant IL4I1 (Homo sapiens (Human), UniProt Q96RQ9); assay: IL4I1 Enzymatic Assay (Amplex Red/HRP coupled H2O2 detection); conditions: 1 nM IL4I1, 1 mM each Phe/Tyr/Trp, four-hour pre-incubation, 120 minutes reaction, top compound concentration of 10000 nM
Sequence (Q96RQ9 22-567): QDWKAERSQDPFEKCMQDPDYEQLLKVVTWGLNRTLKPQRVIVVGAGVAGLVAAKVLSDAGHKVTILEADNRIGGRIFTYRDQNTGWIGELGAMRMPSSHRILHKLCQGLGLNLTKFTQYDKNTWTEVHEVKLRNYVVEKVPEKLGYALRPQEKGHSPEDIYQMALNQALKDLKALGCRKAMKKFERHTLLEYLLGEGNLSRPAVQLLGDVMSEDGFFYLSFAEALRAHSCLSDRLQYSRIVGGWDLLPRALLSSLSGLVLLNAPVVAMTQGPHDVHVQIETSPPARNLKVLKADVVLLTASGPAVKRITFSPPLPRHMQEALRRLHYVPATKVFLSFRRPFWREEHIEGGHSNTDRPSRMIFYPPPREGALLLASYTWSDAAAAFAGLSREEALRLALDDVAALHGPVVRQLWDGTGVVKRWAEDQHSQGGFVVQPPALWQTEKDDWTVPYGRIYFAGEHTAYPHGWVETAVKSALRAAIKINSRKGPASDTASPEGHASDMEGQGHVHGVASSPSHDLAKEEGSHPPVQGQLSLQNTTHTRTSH
recorded-endpoint: EC50 (nM)
Just the number in nM, nothing appended.

Previously resolved entries follow.
[[record]]
compound = "CC(=O)Nc1ccc(Cc2cc3ccccc3[nH]c2=O)cn1"
measured_on = "recombinant IL4I1 (Homo sapiens (Human), UniProt Q96RQ9)"
observed_measurement = 16.9

[[record]]
compound = "CC(=O)NCc1ccc(Cc2cc3ccccc3[nH]c2=O)cc1Cl"
measured_on = "recombinant IL4I1 (Homo sapiens (Human), UniProt Q96RQ9)"
observed_measurement = 2

[[record]]
compound = "Cc1noc(C(C)C)c1-c1nnc(Cc2cc3ccccc3[nH]c2=O)o1"
measured_on = "recombinant IL4I1 (Homo sapiens (Human), UniProt Q96RQ9)"
observed_measurement = 13.7

[[record]]
compound = "O=c1[nH]c2cnccc2cc1Cc1cccc(OC(F)(F)F)c1"
measured_on = "recombinant IL4I1 (Homo sapiens (Human), UniProt Q96RQ9)"
observed_measurement = 466

[[record]]
compound = "O=C1NC(=O)c2cc(Cc3cc4ccccc4[nH]c3=O)ccc21"
measured_on = "recombinant IL4I1 (Homo sapiens (Human), UniProt Q96RQ9)"
observed_measurement = 9.1


Prompt line: Recorded EC50 of O=C1OCCN1c1ccc(Cc2cc3cnccc3[nH]c2=O)cc1 , please.
Response line: 2.7

Prompt line: Which EC50 value is on record for Cc1cnc(-c2nnc(Cc3cc4ccccc4[nH]c3=O)o2)s1 ?
Response line: 203

Prompt line: Any idea what its EC50 is? The compound is Cc1noc(C)c1Cc1nnc(Cc2cc3ccccc3[nH]c2=O)o1
Response line: 194

Prompt line: Which EC50 is reported for this compound? O=c1[nH]c2ccccc2cc1Cc1nnc(-c2ncn3ccccc23)o1
Response line: 10.2

Prompt line: # get_value(readout='EC50', item= O=c1[nH]c2ccccc2cc1Cc1nnc(-c2ncnc3c2CCC3)o1 )
Response line: 23.4

Prompt line: What value of measured EC50 is listed for O=c1[nH]c2ccncc2cc1Cc1ccc2ccccc2c1 ?
Response line: 1.4

Prompt line: Which EC50 is reported for this compound? CC(=O)NCc1ccc(Cc2cc3ccccc3[nH]c2=O)cc1
Response line: 3.5

----------
target: recombinant IL4I1 (Homo sapiens (Human), UniProt Q96RQ9); test: IL4I1 Enzymatic Assay (Amplex Red/HRP coupled H2O2 detection); conditions: 1 nM IL4I1, 1 mM each Phe/Tyr/Trp, four-hour pre-incubation, 120 minutes reaction, top compound concentration of 10000 nM
Overview of recorded EC50 for various compounds
A number alone suffices; assume nM.

Past entries and their recorded results:
[[record]]
compound = "O=c1[nH]c2ccccc2cc1Cc1ccc2nn[nH]c2c1 [Example 132]"
observed_measurement = 18.6

[[record]]
compound = "O=c1[nH]c2ccccc2cc1Cc1ccc2c(c1)CCNC2 [Example 129]"
observed_measurement = 13.6

[[record]]
compound = "O=c1[nH]c2ccccc2cc1Cc1ccc2ncccc2c1 [Example 152]"
observed_measurement = 5.3

[[record]]
compound = "O=c1[nH]c2ccccc2cc1Cc1nnc(-c2cnsc2)o1 [Example 30]"
observed_measurement = 696

[[record]]
compound = "O=c1[nH]c2ccccc2cc1Cc1nnc(C2(C(F)(F)F)CC2)o1 [Example 34]"
observed_measurement = 653

[[record]]
compound = "O=c1[nH]c2ccccc2cc1Cc1nnc(-c2c(F)cccc2F)o1 [Example 3]"
observed_measurement = 2

[[record]]
compound = "CC(C)(C#N)c1ccc(Cc2cc3ccccc3[nH]c2=O)cc1 [Example 97]"
observed_measurement = 1.4

[[record]]
compound = "COC(=O)Nc1ccc(Cc2cc3ccccc3[nH]c2=O)cc1 [Example 119]"
observed_measurement = 16


Prompt line: Please tell me: EC50 of Cc1cc(Cc2cc3ccccc3[nH]c2=O)ccc1CNS(C)(=O)=O [Example 165] , system recombinant IL4I1 (Homo sapiens (Human), UniProt Q96RQ9)?
Response line: 6.2

Prompt line: Lab note: need EC50 for CC(C)(C#N)c1ccc(Cc2cc3cnccc3[nH]c2=O)cc1 [Example 100] on recombinant IL4I1 (Homo sapiens (Human), UniProt Q96RQ9), anyone have it?
Response line: 7.3

Prompt line: Which EC50 is reported with recombinant IL4I1 (Homo sapiens (Human), UniProt Q96RQ9) for this entry: O=C1COc2c(Cc3cc4ccccc4[nH]c3=O)cccc2N1 [Example 122] ?
Response line: 6.6

Prompt line: Give recorded EC50 with recombinant IL4I1 (Homo sapiens (Human), UniProt Q96RQ9) for the following compound: O=c1[nH]c2ccccc2cc1Cc1nnc(-c2ccn3ncnc3c2)o1 [Example 26]
Response line: 314

Prompt line: Param readout = EC50; param system = recombinant IL4I1 (Homo sapiens (Human), UniProt Q96RQ9); param query = O=c1[nH]c2ccccc2cc1Cc1ccc(-c2cn[nH]c2)cc1 [Example 125] ; response: value
Response line: 6.1

Prompt line: Lab note: need EC50 for CC(=O)NCc1ccc(Cc2cc3ccccc3[nH]c2=O)cc1F [Example 166] on recombinant IL4I1 (Homo sapiens (Human), UniProt Q96RQ9), anyone have it?
Response line: 2.7

Prompt line: Under recombinant IL4I1 (Homo sapiens (Human), UniProt Q96RQ9): EC50 value of Cc1snnc1-c1nnc(Cc2cc3ccccc3[nH]c2=O)o1 [Example 17] ?
Response line: 169

Prompt line: Param readout = EC50; param system = recombinant IL4I1 (Homo sapiens (Human), UniProt Q96RQ9); param query = O=C1CC[C@@H](c2ccc(Cc3cc4ccccc4[nH]c3=O)cc2)N1 [Example 159] ; response: value
Response line: 4.1

Prompt line: For recombinant IL4I1 (Homo sapiens (Human), UniProt Q96RQ9), provide EC50 of O=c1[nH]c2ccccc2cc1Cc1ccc2occc(=O)c2c1 [Example 130] please.
Response line: 1.8

Prompt line: Query EC50 on recombinant IL4I1 (Homo sapiens (Human), UniProt Q96RQ9) for O=C1N(c2ccc(Cc3cc4cnccc4[nH]c3=O)cc2)CCC1(F)F [compound 62]
Response line: 6

Prompt line: GET /values?readout=EC50&system=recombinant IL4I1 (Homo sapiens (Human), UniProt Q96RQ9)&item= O=c1[nH]c2c(CO)cccc2cc1Cc1cccc(OC(F)(F)F)c1 [Example 177]
Response line: 1910

Prompt line: Form entry - test system: recombinant IL4I1 (Homo sapiens (Human), UniProt Q96RQ9); read-out: EC50; compound: CS(=N)(=O)Cc1ccc(Cc2cc3ccccc3[nH]c2=O)cc1 (single isomer, unassigned) [Example 186]
Response line: 28.2

Prompt line: I'm curious: which EC50 was measured for O=c1[nH]c2ccccc2cc1Cc1cc(-c2ccccc2)no1 [Example 140] tested on recombinant IL4I1 (Homo sapiens (Human), UniProt Q96RQ9)?
Response line: 23.4

Prompt line: Give recombinant IL4I1 (Homo sapiens (Human), UniProt Q96RQ9) EC50 for NS(=O)(=O)c1cccc(Cc2cc3ccccc3[nH]c2=O)c1 [Example 141]
Response line: 20.2

Prompt line: What EC50 appears in the records for this compound with recombinant IL4I1 (Homo sapiens (Human), UniProt Q96RQ9)? CC(C)(C#N)n1cc(Cc2cc3ccccc3[nH]c2=O)cn1 [Example 148]
Response line: 258

Prompt line: Request - read-out EC50 | tested on recombinant IL4I1 (Homo sapiens (Human), UniProt Q96RQ9) | compound O=c1[nH]c2ccccc2cc1Cc1nnc(Cc2ccccc2F)o1 [Example 8]
Response line: 12.8

Prompt line: Find the measured EC50: item CC(=O)c1cccc(Cc2cc3ccccc3[nH]c2=O)c1 [Example 86, 3-(3-acetylbenzyl)quinolin-2(1H)-one] , target or system recombinant IL4I1 (Homo sapiens (Human), UniProt Q96RQ9).
Response line: 0.9

----------
target: recombinant IL4I1 (Homo sapiens (Human), UniProt Q96RQ9); experiment: IL4I1 Enzymatic Assay (Amplex Red/HRP coupled H2O2 detection); details: 1 nM IL4I1, 1 mM each Phe/Tyr/Trp, four-hour pre-incubation, 120 minutes reaction, top compound concentration of 10000 nM
recorded-endpoint: pEC50
pEC50 is defined as minus the log10 of a concentration measured in mol/L.

[[record]]
molecule = "CC1(c2nnc(Cc3cc4ccccc4[nH]c3=O)o2)CC1 [Example 42]"
observed_measurement = 7.68

[[record]]
molecule = "CC1CN(c2ccc(Cc3cc4cnccc4[nH]c3=O)cc2)C(=O)O1 (single isomer, unassigned) [Example 188]"
observed_measurement = 7.91

[[record]]
molecule = "O=C1CCc2ccc(Cc3cc4ccccc4[nH]c3=O)cc21 [Example 75]"
observed_measurement = 9.05

[[record]]
molecule = "O=C1COc2ccc(Cc3cc4ccccc4[nH]c3=O)c(F)c2N1 [Example 171]"
observed_measurement = 8.15


Query molecule follows.
Prompt line: Query (molecule): NS(=O)(=O)c1ccc(Cc2cc3ccccc3[nH]c2=O)cc1Cl [Example 70] ; field requested: pEC50
Response line: 8.05
